Values from ChEMBL document CHEMBL5528047

Assign Activity to each entry below.
- assay_system: von Hippel-Lindau disease tumor suppressor/Son of sevenless homolog 1 (Homo sapiens, UniProt Q07889+P40337)
- Sequence (P40337 whole entry, looked up): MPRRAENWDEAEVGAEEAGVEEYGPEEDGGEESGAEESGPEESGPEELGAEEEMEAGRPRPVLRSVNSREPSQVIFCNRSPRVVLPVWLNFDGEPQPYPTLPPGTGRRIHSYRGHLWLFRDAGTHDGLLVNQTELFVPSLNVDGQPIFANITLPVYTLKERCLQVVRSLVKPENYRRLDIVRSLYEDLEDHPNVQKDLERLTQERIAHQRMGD
- Sequence (Q07889 whole entry, looked up): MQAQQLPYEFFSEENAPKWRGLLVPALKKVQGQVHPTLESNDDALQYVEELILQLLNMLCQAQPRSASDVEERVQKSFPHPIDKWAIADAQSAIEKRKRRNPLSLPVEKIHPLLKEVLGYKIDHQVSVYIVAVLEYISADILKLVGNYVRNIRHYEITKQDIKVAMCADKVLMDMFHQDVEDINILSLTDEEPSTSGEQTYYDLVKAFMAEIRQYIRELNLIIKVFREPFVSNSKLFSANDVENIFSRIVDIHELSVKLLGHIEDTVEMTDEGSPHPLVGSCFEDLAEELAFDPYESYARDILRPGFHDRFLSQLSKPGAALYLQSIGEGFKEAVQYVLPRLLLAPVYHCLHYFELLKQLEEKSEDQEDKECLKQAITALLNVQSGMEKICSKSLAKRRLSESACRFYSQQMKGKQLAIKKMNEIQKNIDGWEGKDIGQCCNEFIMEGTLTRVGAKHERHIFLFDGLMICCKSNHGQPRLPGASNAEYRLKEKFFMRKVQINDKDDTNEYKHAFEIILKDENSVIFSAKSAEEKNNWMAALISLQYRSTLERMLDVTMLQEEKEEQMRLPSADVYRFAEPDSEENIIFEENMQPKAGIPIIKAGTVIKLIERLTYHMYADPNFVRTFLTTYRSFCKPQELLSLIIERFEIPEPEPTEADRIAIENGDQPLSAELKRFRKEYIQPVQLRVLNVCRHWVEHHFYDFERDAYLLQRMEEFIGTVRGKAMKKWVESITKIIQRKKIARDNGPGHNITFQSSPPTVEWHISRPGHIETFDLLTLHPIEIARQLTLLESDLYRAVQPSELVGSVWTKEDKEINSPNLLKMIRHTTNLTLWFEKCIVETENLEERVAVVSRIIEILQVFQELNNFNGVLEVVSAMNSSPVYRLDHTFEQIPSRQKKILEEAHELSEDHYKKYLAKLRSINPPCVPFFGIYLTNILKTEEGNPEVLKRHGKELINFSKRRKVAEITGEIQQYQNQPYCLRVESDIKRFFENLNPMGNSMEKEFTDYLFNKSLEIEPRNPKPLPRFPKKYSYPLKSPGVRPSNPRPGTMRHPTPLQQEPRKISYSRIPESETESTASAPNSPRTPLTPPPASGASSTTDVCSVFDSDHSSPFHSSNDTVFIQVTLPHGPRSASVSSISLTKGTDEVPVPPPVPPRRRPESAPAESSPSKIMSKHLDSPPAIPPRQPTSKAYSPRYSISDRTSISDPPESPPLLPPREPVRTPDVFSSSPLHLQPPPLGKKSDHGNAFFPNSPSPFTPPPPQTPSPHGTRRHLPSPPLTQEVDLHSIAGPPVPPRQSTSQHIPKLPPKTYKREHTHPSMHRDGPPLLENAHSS
- assay_remarks: Protac activity at VHL/SOS1 in human PANC-1 cells assessed as SOS1 degradation at 1 uM by Western blotting analysis relative to control
- Format: cell-based
Numeric only. Scale: %

Inquiry: Please look up its Activity: COc1cc2nc(C)nc(N[C@H](C)c3cc(N)cc(C(F)(F)F)c3)c2cc1OCCCC(=O)N[C@H](C(=O)N1C[C@H](O)C[C@H]1C(=O)NCc1ccc(-c2scnc2C)cc1)C(C)(C)C
Reply text: 0

Inquiry: Param item: COc1cc2nc(C)nc(N[C@H](C)c3cc(-c4ccccc4CNCCCCCC(=O)N[C@H](C(=O)N4C[C@H](O)C[C@H]4C(=O)NCc4ccc(-c5scnc5C)cc4)C(C)(C)C)cs3)c2cc1OC
Reply text: 13.2

Inquiry: Param item: CNCc1ccccc1-c1csc([C@@H](C)Nc2nc(C)nc3cc(OC)c(OCCCCCCC(=O)N[C@H](C(=O)N4C[C@H](O)C[C@H]4C(=O)NCc4ccc(-c5scnc5C)cc4)C(C)(C)C)cc23)c1
Reply text: 0

Inquiry: Param item: CNCc1ccccc1-c1csc([C@@H](C)Nc2nc(C)nc3cc(OC)c(C4=CCN(C(=O)CCCC(=O)N[C@H](C(=O)N5C[C@H](O)C[C@H]5C(=O)NCc5ccc(-c6scnc6C)cc5)C(C)(C)C)CC4)cc23)c1
Reply text: 8.4

Inquiry: Param item: COc1cc2nc(C)nc(N[C@H](C)c3cc(-c4ccccc4CNCC4CCN(C(=O)CC(=O)N[C@H](C(=O)N5C[C@H](O)C[C@H]5C(=O)NCc5ccc(-c6scnc6C)cc5)C(C)(C)C)CC4)cs3)c2cc1OC
Reply text: 26

Inquiry: Param item: COc1cc2nc(C)nc(N[C@H](C)c3cc(N)cc(C(F)(F)F)c3)c2cc1OCCCCC(=O)N[C@H](C(=O)N1C[C@H](O)C[C@H]1C(=O)NCc1ccc(-c2scnc2C)cc1)C(C)(C)C
Reply text: 90.9

Inquiry: Param item: COc1cc2nc(C)nc(N[C@H](C)c3cc(-c4ccccc4CNCCCCCCC(=O)N[C@H](C(=O)N4C[C@H](O)C[C@H]4C(=O)NCc4ccc(-c5scnc5C)cc4)C(C)(C)C)cs3)c2cc1OC
Reply text: 44

Inquiry: Param item: CNCc1ccccc1-c1csc([C@@H](C)Nc2nc(C)nc3cc(OC)c(OCCCCCCCC(=O)N[C@H](C(=O)N4C[C@H](O)C[C@H]4C(=O)NCc4ccc(-c5scnc5C)cc4)C(C)(C)C)cc23)c1
Reply text: 0

Inquiry: Param item: COc1cc2nc(C)nc(N[C@H](C)c3cc(-c4ccccc4CNCCCCCCCC(=O)N[C@H](C(=O)N4C[C@H](O)C[C@H]4C(=O)NCc4ccc(-c5scnc5C)cc4)C(C)(C)C)cs3)c2cc1OC
Reply text: 0

Inquiry: Param item: COc1cc2nc(C)nc(N[C@H](C)c3cc(-c4ccccc4CNCCCN4CCC(C(=O)N[C@H](C(=O)N5C[C@H](O)C[C@H]5C(=O)NCc5ccc(-c6scnc6C)cc5)C(C)(C)C)CC4)cs3)c2cc1OC
Reply text: 29.1

Inquiry: Param item: COc1cc2nc(C)nc(N[C@H](C)c3cc(N)cc(C(F)(F)F)c3)c2cc1OCCCCCCCCC(=O)N[C@H](C(=O)N1C[C@H](O)C[C@H]1C(=O)NCc1ccc(-c2scnc2C)cc1)C(C)(C)C
Reply text: 28.2

Inquiry: Param item: COc1cc2nc(C)nc(N[C@H](C)c3cc(N)cc(C(F)(F)F)c3)c2cc1OCCCCCC(=O)N[C@H](C(=O)N1C[C@H](O)C[C@H]1C(=O)NCc1ccc(-c2scnc2C)cc1)C(C)(C)C
Reply text: 0

Inquiry: Param item: COc1cc2nc(C)nc(N[C@H](C)c3cc(N)cc(C(F)(F)F)c3)c2cc1OCCCCCCCCCC(=O)N[C@H](C(=O)N1C[C@H](O)C[C@H]1C(=O)NCc1ccc(-c2scnc2C)cc1)C(C)(C)C
Reply text: 48.3

Inquiry: Param item: CNCc1ccccc1-c1csc([C@@H](C)Nc2nc(C)nc3cc(OC)c(OCCCCCCCCC(=O)N[C@H](C(=O)N4C[C@H](O)C[C@H]4C(=O)NCc4ccc(-c5scnc5C)cc4)C(C)(C)C)cc23)c1
Reply text: 0

Inquiry: Param item: COc1cc2nc(C)nc(N[C@H](C)c3cc(-c4ccccc4CNCCCCCCCCC(=O)N[C@H](C(=O)N4C[C@H](O)C[C@H]4C(=O)NCc4ccc(-c5scnc5C)cc4)C(C)(C)C)cs3)c2cc1OC
Reply text: 0

Inquiry: Param item: CNCc1ccccc1-c1csc([C@@H](C)Nc2nc(C)nc3cc(OC)c(OCCCCC(=O)N[C@H](C(=O)N4C[C@H](O)C[C@H]4C(=O)NCc4ccc(-c5scnc5C)cc4)C(C)(C)C)cc23)c1
Reply text: 8.8

Inquiry: Param item: COc1cc2nc(C)nc(N[C@H](C)c3cc(-c4ccccc4CNCC4CCN(CC5CCN(C(=O)CC(=O)N[C@H](C(=O)N6C[C@H](O)C[C@H]6C(=O)NCc6ccc(-c7scnc7C)cc6)C(C)(C)C)CC5)CC4)cs3)c2cc1OC
Reply text: 23

Inquiry: Param item: COc1cc2nc(C)nc(N[C@H](C)c3cc(-c4ccccc4CNCCCCCCCCCC(=O)N[C@H](C(=O)N4C[C@H](O)C[C@H]4C(=O)NCc4ccc(-c5scnc5C)cc4)C(C)(C)C)cs3)c2cc1OC
Reply text: 0

Inquiry: Param item: COc1cc2nc(C)nc(N[C@H](C)c3cc(N)cc(C(F)(F)F)c3)c2cc1OCCCCCCCC(=O)N[C@H](C(=O)N1C[C@H](O)C[C@H]1C(=O)NCc1ccc(-c2scnc2C)cc1)C(C)(C)C
Reply text: 28.8

Inquiry: Param item: COc1cc2nc(C)nc(N[C@H](C)c3cc(-c4ccccc4CNCCC4CCN(C(=O)CC(=O)N[C@H](C(=O)N5C[C@H](O)C[C@H]5C(=O)NCc5ccc(-c6scnc6C)cc5)C(C)(C)C)CC4)cs3)c2cc1OC
Reply text: 0
